assay: chemical genetic growth profiling, strain panel (AID 1159580);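 note: tested at 20 µM; growth read once vehicle control cultures reached saturation at 30 °C; 1 = growth at the plate median or of vehicle wells; lower values mean less growth of the strain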; details: S. cerevisiae deletion strains, growth OD, locus YDL074C, strain BRE1
Out of some 5,500 compounds screened, about 2,000 (36%) were called active. About 18% were inconclusive and are not listed. Cut-off read from the data, not from the text of the source: active = normalized growth mostly below about 0.91 (no sharp cut-off); inconclusive = no clear call, values can overlap the other calls; inactive = mostly above about 0.92. The list shows a part of the results.
Possible outcomes: active, inactive

* COc1cc2c(cc1OC)C1C(=O)c3c(OC)cc4c(c3OC1CO2)CCC(C)(C)O4 (configuration not stated) | inactive
* CC(=O)[C@H]1CCC2C3CCC4=CC(=O)CC[C@]4(C)C3CC[C@@]21C (some centres not stated) | inactive
* CC(C)CC(NC(=O)C(Cc1ccccc1)NC(=O)CNC(=O)CNC(=O)C(N)Cc1ccc(O)cc1)C(=O)O (configuration not stated) | inactive
* CC(N)CCCC(C)(C)O (configuration not stated) | inactive
* CC[C@H](/C=C/C(C)C1CCC2C3CCC4=CC(=O)CC[C@]4(C)C3CC[C@]12C)C(C)C (some centres not stated) | inactive
* CC(=O)OCC[N+](C)(C)C | inactive
* CCC(=O)O[C@H]1CCC2C3CCC4=CC(=O)CC[C@]4(C)C3CC[C@@]21C (some centres not stated) | active
* COP(=O)(OC)OC=C(Cl)Cl | inactive
* CC(C[N+](C)(C)C)OC(N)=O (configuration not stated) | inactive
* C[N+](C)(C)CCCCCC[N+](C)(C)C | inactive
* CCCCNc1cc(C(=O)O)cc(S(N)(=O)=O)c1Oc1ccccc1 | inactive
* C=C(C)C1CNC(C(=O)O)C1CC(=O)O (configuration not stated) | inactive

----------
assay: chemical genetic growth profiling, strain panel (AID 1159580); conditions: S. cerevisiae deletion strains, growth OD, locus YLR371W, strain rom2, hits give low values
Among all 5,500 compounds or so, about 2,000 (36%) were called active. Another 18% or so got no clear call; they are omitted. Some of the results follow.
Quick reference for normalized growth among some molecules
Observed Property: normalized growth

• ClC1=C(Cl)C2(Cl)C3C(Cl)C=CC3C1(Cl)C2(Cl)Cl (stereo unspecified) = 0.973 (inactive)
• CCCCNc1cc(C(=O)O)cc(S(N)(=O)=O)c1Oc1ccccc1 = 0.984 (inactive)
• c1cncc(C2CCCCN2)c1 (stereo unspecified) = 0.985 (inactive)
• CC1=C(/C=C/C(C)=C/C=C/C(C)=C/C=C/C=C(C)/C=C/C=C(C)/C=C/C23OC2(C)CC(O)CC3(C)C)C(C)(C)CC(O)C1 (stereo unspecified) = 1.01 (inactive)
• ClC1=C(Cl)C2(Cl)C3C4C=CC(C4)C3C1(Cl)C2(Cl)Cl (stereo unspecified) = 0.981 (inactive)
• CC(=O)N[C@@H](CC(C)C)C(=O)O = 0.982 (inactive)

----------
test: chemical genetic growth profiling, strain panel (AID 1159580); conditions: S. cerevisiae deletion strains, growth OD, locus YLR027C, strain aat2, hits give low values
Hit rate of the full screen: of about 5,500 compounds, about 2,000 (36%) were called active. Not shown: some 18% with an inconclusive outcome. The list shows a part of the results.
Quick reference for normalized growth among some compounds
Observed Property: normalized growth

* CC(=O)OCC(=O)[C@@]1(O)CCC2C3CCC4=CC(=O)CC[C@]4(C)C3C(=O)C[C@@]21C (stereo not given in full) | 0.961 (inactive)
* COc1cc2c(cc1OC)[C@@H]1C(=O)c3ccc4c(c3O[C@@H]1CO2)C=CC(C)(C)O4 | 0.982 (inactive)
* COc1cc2c(cc1OC)[C@@H]1C(=O)c3ccc4oc(C(C)C)cc4c3O[C@@H]1CO2 | 0.999 (inactive)
* CC(=O)OC(C)(C)[C@@H]1Cc2cc3ccc(=O)oc3cc2O1 | 0.962 (inactive)
* CC(=O)OCC(=O)[C@H]1CCC2C3CCC4=CC(=O)CC[C@]4(C)C3CC[C@@]21C (stereo not given in full) | 0.97 (inactive)

----------
assay: chemical genetic growth profiling, strain panel (AID 1159580); settings: S. cerevisiae deletion strains, growth OD, locus YFR010W, strain ubp6, hits give low values
About 2,000 (36%) of roughly 5,500 compounds were called active. Another 18% or so got no clear call; they are omitted. The list shows a part of the results.
Quick reference for normalized growth among some compounds
Observed Property: normalized growth

- CC(NCCc1ccc(O)cc1)C(O)c1ccc(O)cc1 (configuration not stated): 0.922
- N=c1ccn2c(n1)O[C@@H]1C2O[C@H](CO)[C@H]1O (some centres not stated): 0.975
- COc1cc(O)c(C(=O)/C=C/c2ccccc2)c(OC)c1: 0.944
- CN[C@@H](C)[C@@H](O)c1ccccc1: 0.992
- COc1cc(/C=C/C(=O)/C=C(O)/C=C/c2ccc(O)c(OC)c2)ccc1O: 0.187
- COc1cc(O)c(C(=O)/C=C/c2ccc(OC)c(O)c2)c(OC)c1: 0.959
- CC(Oc1ccccc1)C(=O)N[C@@H]1C(=O)N2[C@@H]1SC(C)(C)[C@@H]2C(=O)O (some centres not stated): 0.997
- CNC(C)[C@H](O)c1ccccc1 (some centres not stated): 0.96
- CC(=O)OCC(=O)[C@H]1CCC2C3CCC4=CC(=O)CC[C@]4(C)C3CC[C@@]21C (some centres not stated): 0.994
- COc1cc(O)c(C(=O)/C=C/c2ccc(O)c(OC)c2)c(OC)c1: 0.899
- c1cncc(C2CCCCN2)c1 (configuration not stated): 0.989
- CC(CCc1ccccc1)NC(C)C(O)c1ccc(O)cc1 (configuration not stated): 1

----------
test: chemical genetic growth profiling, strain panel (AID 1159580);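 note: tested at 20 µM; growth read once vehicle control cultures reached saturation at 30 °C; 1 = growth at the plate median or of vehicle wells; lower values mean less growth of the strain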; details: S. cerevisiae deletion strains, growth OD, locus YBR023C, strain chs3
Screen size: about 5,500 compounds; about 2,000 (36%) were called active. Another 18% or so got no clear call; they are omitted. Rule as the data show it: active = normalized growth mostly below about 0.91 (no sharp cut-off); inconclusive = no clear call, values can overlap the other calls; inactive = mostly above about 0.92. This is one part of the list.
Possible outcomes: 1 (active), 0 (inactive)

- Cc1cc(O)c(C)c(O)c1C(=O)O: 0
- CCN(CC)CCCC(C)Nc1c2ccc(Cl)cc2nc2ccc(OC)cc12 (stereo unspecified): 0
- Cc1cc(O)c(C=O)c(O)c1C(=O)O: 0
- COc1cc(O)c(C(=O)/C=C/c2ccccc2)c(OC)c1: 1
- COc1cc(O)c(C(=O)/C=C/c2ccc(OC)c(O)c2)c(OC)c1: 1
- COc1cc(O)c(C(=O)/C=C/c2ccc(O)c(OC)c2)c(OC)c1: 0

----------
test: chemical genetic growth profiling, strain panel (AID 1159580);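 note: tested at 20 µM; growth read once vehicle control cultures reached saturation at 30 °C; 1 = growth at the plate median or of vehicle wells; lower values mean less growth of the strain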; conditions: S. cerevisiae deletion strains, growth OD, locus YOR265W, strain rbl2, hits give low values
In all, about 5,500 compounds went through this assay and about 2,000 (36%) were called active. About 18% were inconclusive and are not listed. Some of the results follow.
Quick reference for normalized growth among some compounds
Observed Property: normalized growth

- CC(C[N+](C)(C)C)OC(N)=O (stereo not given): 1.02
- CCN(CC)CCCC(C)Nc1ccnc2cc(Cl)ccc12 (stereo not given): 1.02
- CCN(CCO)CCCC(C)Nc1ccnc2cc(Cl)ccc12 (stereo not given): 1.04
- CCOC(=O)[C@H](CCc1ccccc1)N[C@H]1CCc2ccccc2N(CC(=O)O)C1=O: 0.987
- CCCCCCCCCCCCCCCC(=O)OC/C=C(C)/C=C/C=C(C)/C=C/C1=C(C)CCCC1(C)C: 1.02
- C[C@]12CCC(=O)C=C1CCC1C2CC[C@@]2(C)C1CC[C@@H]2O (stereo not given in full): 0.989
- CC1=C(/C=C/C(C)=C/C=C/C(C)=C/C=C/C=C(C)/C=C/C=C(C)/C=C/C2=C(C)C(=O)C(O)CC2(C)C)C(C)(C)CC(O)C1=O (stereo not given): 1.03
- CC(=O)[C@H]1CCC2C3CCC4=CC(=O)CC[C@]4(C)C3CC[C@@]21C (stereo not given in full): 0.967
- CC(=O)OCC[N+](C)(C)C: 1.02
- C[N+](C)(C)CCOC(N)=O: 1.01
- CC1=C(/C=C/C(C)=C/C=C/C(C)=C/C=C/C=C(C)/C=C/C=C(C)/C=C/C2=C(C)C(=O)CCC2(C)C)C(C)(C)CCC1=O: 1.01
- CC(=O)O[C@@H]1C[C@@]2(C)C(CC[C@@H]2C(C)=O)C2CCC3=CC(=O)CC[C@]3(C)C21 (stereo not given in full): 1
- CCN(CC)CCCC(C)Nc1c2ccc(Cl)cc2nc2ccc(OC)cc12 (stereo not given): 1.02
- COc1cc2c(cc1OC)C(=O)OC2: 1.01
- c1ccc(N=Nc2ccccc2)cc1: 0.985

----------
assay: chemical genetic growth profiling, strain panel (AID 1159580);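 note: tested at 20 µM; growth read once vehicle control cultures reached saturation at 30 °C; 1 = growth at the plate median or of vehicle wells; lower values mean less growth of the strain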; settings: S. cerevisiae deletion strains, growth OD, locus YDR388W, hits give low values
Out of some 5,500 compounds screened, about 2,000 (36%) were called active. About 18% were inconclusive and are not listed. Some of the results follow.
Observed Property: normalized growth

- CO[C@H]1[C@H](O)[C@H](O[C@H]2CC[C@]3(C)C4CC[C@]5(C)C(C6=CC(=O)OC6)CC[C@]5(O)C4CC[C@@H]3C2)O[C@@H](C)[C@@H]1O (some centres not stated): 1.01
- CCC(C)C(OC(C)=O)C(=O)OC1C(O)C2C3(C)C=CC(=O)C(C)(C)C3CC(OC(=O)C(O)C(C)C)C2(C)C23OC2CC(c2ccoc2)C13C (configuration not stated): 0.988
- CC1=C(/C=C/C(C)=C/C=C/C(C)=C/C=C/C=C(C)/C=C/C=C(C)/C=C/C2=C(C)C(=O)C(O)CC2(C)C)C(C)(C)CC(O)C1=O (configuration not stated): 0.992
- CCCCCCCCCCCCCCCC(=O)OC/C=C(C)/C=C/C=C(C)/C=C/C1=C(C)CCCC1(C)C: 1.02
- COP(=O)(OC)OC=C(Cl)Cl: 0.995
- C=C1C([C@]2(C)C(CC(=O)OC)[C@@](C)(COC(C)=O)OC(=O)C[C@@H]2OC(C)=O)[C@@H](OC=O)[C@H](OC(=O)C(OC(C)=O)C(C)CC)[C@@]2(C)[C@H](c3ccoc3)CC(=O)C12O (some centres not stated): 1.03
- COc1ccc2c3c1O[C@H]1C[C@@H](O)C=C[C@@]31CCN(C)C2: 1.01
